# Test system: RPMI-8226 leukemia
# Assay explanation: NCI tumour cell line growth inhibition, 48 h; in the data active means GI50 below about 0.43 µM; inactive means the rest
Pick one: Y for active, N for inactive

Molecule | Group
Cn1c2c(c3ccc(Cl)c(Cl)c31)C(C#N)C1(CCNCC1)NC2=O (centres undefined) | N

Query molecule follows.
Problem: Outcome? COc1cc(S(=O)(=O)Nc2ccc(C(=O)/C=C/c3ccc(O)cc3)cc2)ccc1F
Solution: N

---

# Test system: M14 melanoma
# Assay explanation: NCI tumour cell line growth inhibition, 48 h
Property name: TGI

Recorded TGI, per entry:
Compound | Test result
O=C1N=C2SC(=S)NC(=S)N2NC12c1ccccc1-c1ccccc12 | > 10 µM
COc1ccc(-c2ccc(-c3ccc(C(=N)N)cn3)o2)cc1 | 4.68 µM

Problem: For C/C(=N\N(c1ccccc1)c1ccccc1)c1c(O)cc(C)oc1=O , write its TGI.
Solution: > 100 µM

Problem: Entry C[C@]12CCC(=O)[C@@H](CCC3=CC(=O)C=CC3=O)[C@@H]1CCC2=O needs its TGI filled in; supply it.
Solution: 59.1 µM

Problem: Please give the documented TGI of CC1C(=O)OCC2=CCN3CCC(OC(=O)C(C)C1(C)O)C23 (stereo unspecified)
Solution: > 100 µM

Problem: For CCOC(=O)/C=C1\CCCC12OCCO2 , write its TGI.
Solution: > 100 µM
